System: Saccharomyces cerevisiae;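 also: PSI is a weighted mean of sequencing reads over stability bins, variants kept only with over 10 reads, mCherry proximal and sfGFP distal, peptide attached via GGGS linker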
Assay: protein stability index of tFT-peptide fusion (C-terminal peptide) (PSI (0-1 scale)); higher = more stable (slower turnover)
Conditions: genetic background: das1 deletion; temperature: 30 C
Label true (1) when protein stability index is at or above 0.4; otherwise label false (0).

INSERT INTO assay_data (residues, classlabel) VALUES
  ('DLPKAYCIEMIG', 'true (1)'),
  ('APASFRVLISAF', 'false (0)'),
  ('SGFWVSVDVFFV', 'false (0)'),
  ('GWCLGFWCLLVC', 'false (0)'),
  ('PVLSLPPLSSPP', 'true (1)'),
  ('AVLAALVSTLAG', 'false (0)'),
  ('LPTLDCPLHRLF', 'true (1)'),
  ('WGLPVGVESSGG', 'true (1)'),
  ('VVTFLCPLVGHV', 'false (0)');
